Each recorded value in this set is attributed to patent US5246959A.

target of assay: Human Renin (Homo sapiens)
Sequence (P00797 67-406): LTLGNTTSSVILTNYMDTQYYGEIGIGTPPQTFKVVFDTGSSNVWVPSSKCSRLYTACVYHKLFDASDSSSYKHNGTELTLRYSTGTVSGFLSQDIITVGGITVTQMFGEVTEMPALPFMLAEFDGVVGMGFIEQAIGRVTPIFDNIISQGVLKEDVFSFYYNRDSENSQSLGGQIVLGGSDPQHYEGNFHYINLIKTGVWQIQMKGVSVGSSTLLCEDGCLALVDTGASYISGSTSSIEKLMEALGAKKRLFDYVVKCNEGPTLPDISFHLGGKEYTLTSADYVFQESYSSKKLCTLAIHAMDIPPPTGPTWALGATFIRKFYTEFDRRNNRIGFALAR
experimental details: human renin inhibition test in vitro (angiotensin I by radioimmunoassay)
assay setup: pH 7.4, 37° C., two hours, human plasma
pIC50: −log10 of the molar value.
recorded metric: pIC50

P: CC(C)C[C@H](O)[C@H](O)[C@H](CC1CCCCC1)NC(=O)[C@H](C)CNC(=O)[C@H](Cc1ccccc1)OC(=O)N(C)CCN(C)CCN(C)C
Q: CC(C)C[C@H](NC(=O)[C@H](Cc1ccccc1)OC(=O)N(C)CCN(C)CCN(C)C)C(=O)N[C@@H](CC1CCCCC1)[C@@H](O)[C@@H](O)CC(C)C
R: CC(C)C[C@H](O)[C@H](O)[C@H](CC1CCCCC1)NC(=O)[C@H](Cc1cnc[nH]1)NC(=O)[C@H](Cc1ccccc1)OC(=O)N(C)CCN(C)CCN(C)C
# input Output the entries ranked by pIC50 from maximum down to minimum. Field: ranking. Enter the labels in the order requested.
# output R, Q, P
